// reported IC50 for each item listed
# System: HEK-293 cell line
# TEST: MTT toxicity assay, normal cell line HEK-293
# Assay type: cell-based
# CONDITION PARAMETERS: Homo sapiens, HEK293, 48 h, read-out: IC50 against HEK-293

Answered cases to consult:
In [3]: df
Out[3]:
                                   compound  readout_type    result
0  Cn1c(=O)c2c(nc(N3CCN(Cc4cn(CCCc5ccccc5)nn4)CC3)n2C)n(C)c1=O [Compound 12d]          IC50  > 500 µM
1  CCCCCCCn1cc(CN2CCN(c3nc4c(c(=O)n(C)c(=O)n4C)n3C)CC2)nn1 [Compound 12h]          IC50  > 500 µM
2  Cn1c(=O)c2c(nc(N3CCN(Cc4cn(CCc5ccccc5)nn4)CC3)n2C)n(C)c1=O [Compound 12e]          IC50  > 500 µM

Cn1c(=O)c2c(nc(N3CCN(Cc4cn(CCCCCN5C(=O)c6ccccc6C5=O)nn4)CC3)n2C)n(C)c1=O [Compound 12l] on HEK-293 cell line gives IC50 = > 500 µM

CCCCCCn1cc(CN2CCN(c3nc4c(c(=O)n(C)c(=O)n4C)n3C)CC2)nn1 [Compound 12i] on HEK-293 cell line gives IC50 = 371 µM

CCCCCCCCn1cc(CN2CCN(c3nc4c(c(=O)n(C)c(=O)n4C)n3C)CC2)nn1 [Compound 12j] on HEK-293 cell line gives IC50 = 418 µM

Cn1c(=O)c2c(nc(N3CCN(Cc4cn(CCCN5C(=O)c6ccccc6S5(=O)=O)nn4)CC3)n2C)n(C)c1=O [Compound 12n] on HEK-293 cell line gives IC50 = > 500 µM

CCCCCCCCCCn1cc(CN2CCN(c3nc4c(c(=O)n(C)c(=O)n4C)n3C)CC2)nn1 [Compound 12k] on HEK-293 cell line gives IC50 = > 500 µM
